Field: IC50. Provide a value for each of the compounds that follow.
target: p53-MDM2 interaction (GST-MDM2 protein aa 23-117 / biotinylated p53 wt peptide) (Homo sapiens (Human)); assay: Mdm2-p53 Inhibition AlphaScreen; conditions: GST-MDM2 (aa 23-117) / biotinylated p53 wt peptide
Sequence (Q00987 23-117): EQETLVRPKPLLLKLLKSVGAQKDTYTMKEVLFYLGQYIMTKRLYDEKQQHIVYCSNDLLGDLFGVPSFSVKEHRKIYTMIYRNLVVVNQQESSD
Numbers only, in nM.

Please review the entries below; each comes with its answer.
{"Compound": "O=C(O)c1ccc2nc3n(c2c1)CC[C@H]1[C@@H]3[C@H](c2cccc(Cl)c2F)[C@]2(C(=O)Nc3cc(Cl)ccc32)N1CC1CC1 [Ib-155]", "Output unit": "nM", "Assay value": 2}
{"Compound": "CC(=O)Nc1ccc2c(c1)nc1n2CC[C@H]2[C@@H]1[C@H](c1cccc(Cl)c1F)[C@]1(C(=O)Nc3cc(Cl)ccc31)N2CC1CC1", "Output unit": "nM", "Assay value": 15}
{"Compound": "CCOc1cccc(CN2[C@H]3Cn4c(nc5cc(C(N)=O)ccc54)[C@H]3[C@H](c3cccc(Cl)c3F)[C@]23C(=O)Nc2cc(Cl)ccc23)c1 [Ib-242]", "Output unit": "nM", "Assay value": 2}
{"Compound": "CS(=O)(=O)CCCN1[C@H]2CCn3c(nc4cc(C(=O)O)ccc43)[C@H]2[C@H](c2cccc(Cl)c2F)[C@]12C(=O)Nc1cc(Cl)ccc12", "Output unit": "nM", "Assay value": 58}
{"Compound": "Cc1c(C(=O)N2CCOCC2)ccn2c3c(nc12)[C@@H]1[C@H](C3)N(CC2CC2)[C@@]2(C(=O)Nc3cc(Cl)ccc32)[C@H]1c1ccnc(Cl)c1F", "Output unit": "nM", "Assay value": 10}
{"Compound": "CC(C)CN1[C@H]2CCn3c(nc4cc(C(N)=O)ccc43)[C@H]2[C@H](c2cccc(Cl)c2F)[C@]12C(=O)Nc1cc(Cl)ccc12", "Output unit": "nM", "Assay value": 3}
{"Compound": "CCN1[C@H]2Cn3c(nc4cc(C(=O)O)c(C)cc43)[C@H]2[C@H](c2cccc(Cl)c2F)[C@]12C(=O)Nc1cc(Cl)ccc12", "Output unit": "nM", "Assay value": 6}
{"Compound": "CN(C)CCNC(=O)c1ccc2c(c1)nc1n2CC[C@H]2[C@@H]1[C@H](c1cccc(Cl)c1F)[C@]1(C(=O)Nc3cc(Cl)ccc31)N2CC1CC1", "Output unit": "nM", "Assay value": 5}
{"Compound": "O=C(NC1COCC1O)c1ccc2c(c1)nc1n2CC[C@H]2[C@@H]1[C@H](c1cccc(Cl)c1F)[C@]1(C(=O)Nc3cc(Cl)ccc31)N2CC1CC1 (stereo partly drawn)", "Output unit": "nM", "Assay value": 4}
{"Compound": "CCCCCN1[C@H]2CCn3c(nc4cc(C(=O)O)ccc43)[C@H]2[C@H](c2cccc(Cl)c2F)[C@]12C(=O)Nc1cc(Cl)ccc12", "Output unit": "nM", "Assay value": 8}

Would you mind giving IC50 for every compound in the list below?
1. O=C(O)c1ccc2c(c1)nc1n2C[C@H]2[C@@H]1[C@H](c1cccc(Cl)c1F)[C@]1(C(=O)Nc3cc(Cl)ccc31)N2CC1CC1 [Ib-176]
2. Cc1c(C(=O)O)ccc2c1nc1n2C[C@H]2[C@@H]1[C@H](c1cccc(Cl)c1F)[C@]1(C(=O)Nc3cc(Cl)ccc31)N2CC1CC1 [Ib-190]

Reply:
1: 2; 2: 2
